system: HDFa cell lines; test: Cytotoxicity on healthy dermal fibroblasts (MTT / xCELLigence real-time cell analysis); assay type: cell-based; conditions: Homo sapiens, 24 h, values greater than 100 not calculated, read-out: IC50 (μM) for HDFa cell lines, 24 h
quantity name: IC50

Request: Entry Cc1ccc2oc(-c3ccc(-c4nc5cc(Cl)ccc5o4)[nH]3)nc2c1 [Compound B13] : reported IC50 = ?
Response: ≥ 100 µM

Request: Then Cc1ccc2nc(-c3ccc(-c4nc5ccc(C)cc5o4)[nH]3)oc2c1 [Compound B3] ?
Response: ≥ 100 µM

Request: Then COc1ccc2oc(-c3ccc(-c4nc5cc(C)ccc5o4)[nH]3)nc2c1 [Compound B12] ?
Response: ≥ 100 µM

###

Assign IC50 to each entry below.
system: MCF‐7 cell lines; assay: MTT assay, cytotoxicity on MCF-7 cells; format: cell-based, human; conditions: Homo sapiens, MCF7, read-out: IC50 (μM) for MCF‐7 cell lines; MTT, 48 h
Unit µM implied. Number only.

Request: Entry Cc1ccc2nc(-c3ccc(-c4nc5cc(Cl)ccc5o4)[nH]3)oc2c1 : reported IC50 = ?
Response: 2.97

Request: Then COC(=O)c1ccc2nc(-c3ccc(-c4nc5cc(Cl)ccc5o4)[nH]3)oc2c1 ?
Response: 3.25

Request: Then COC(=O)c1ccc2nc(-c3ccc(-c4nc5cc(C)ccc5o4)[nH]3)oc2c1 ?
Response: 0.95

Request: Then COC(=O)c1ccc2nc(-c3ccc(-c4nc5cc(OC)ccc5o4)[nH]3)oc2c1 ?
Response: 1.3

Request: Then COC(=O)c1ccc2nc(-c3ccc(-c4nc5ccc(C)cc5o4)[nH]3)oc2c1 ?
Response: 2.82

Request: Then COc1ccc2oc(-c3ccc(-c4nc5ccccc5o4)[nH]3)nc2c1 ?
Response: 1.89

Request: Then Cc1ccc2oc(-c3ccc(-c4nc5ccccc5o4)[nH]3)nc2c1 ?
Response: 3.09

Request: Then Clc1ccc2oc(-c3ccc(-c4nc5cc(Cl)ccc5o4)[nH]3)nc2c1 ?
Response: 2.69

Request: Then COC(=O)c1ccc2nc(-c3ccc(-c4nc5ccccc5o4)[nH]3)oc2c1 ?
Response: 2.88

Request: Then Clc1ccc2oc(-c3ccc(-c4nc5ccccc5o4)[nH]3)nc2c1 ?
Response: 3.23

Request: Then c1ccc2oc(-c3ccc(-c4nc5ccccc5o4)[nH]3)nc2c1 [Compound B1, 2,5‐Bis(Benzo[d]Oxazol‐2‐Yl)‐1H‐Pyrrole] ?
Response: 2.96

###

Test system: MCF‐7 cell lines
Assay: MTT assay, cytotoxicity on MCF-7 cells
Format: cell-based, human
Details: Homo sapiens, MCF7; MTT, 72 h; read-out: IC50 (μM) for MCF‐7 cell lines, 72 h
Experimental: The cytotoxic effects of PTB derivatives on MCF‐7 breast cancer cells were evaluated using the MTT assay at various concentrations (100 nM, 1 μM, 10 μM, 50 μM, and 100 μM). […] MTT Method. The MTT method is used to detect and quantify living organisms cultured with the method colorimetrically. […] Cell viability is measured based on the MTT reduction property, and the density of dye obtained from MTT analysis indicates the number of viable cells. […]
quantity name: IC50 (µM)
Unit µM implied. Number only.

Request: Entry COc1ccc2oc(-c3ccc(-c4nc5ccc(C)cc5o4)[nH]3)nc2c1 [Compound B15] : reported IC50 = ?
Response: 2.53

Request: Then COC(=O)c1ccc2nc(-c3ccc(-c4nc5cc(OC)ccc5o4)[nH]3)oc2c1 [Compound B18] ?
Response: 2.69

Request: Then Cc1ccc2oc(-c3ccc(-c4nc5ccccc5o4)[nH]3)nc2c1 [Compound B6] ?
Response: 3.02

Request: Then COc1ccc2oc(-c3ccc(-c4nc5cc(OC)ccc5o4)[nH]3)nc2c1 [Compound B4] ?
Response: 3.11

Request: Then c1ccc2oc(-c3ccc(-c4nc5ccccc5o4)[nH]3)nc2c1 [Compound B1, 2,5‐Bis(Benzo[d]Oxazol‐2‐Yl)‐1H‐Pyrrole] ?
Response: 3.13

Request: Then COC(=O)c1ccc2nc(-c3ccc(-c4nc5ccc(C)cc5o4)[nH]3)oc2c1 [Compound B16] ?
Response: 2.93

Request: Then Cc1ccc2nc(-c3ccc(-c4nc5cc(Cl)ccc5o4)[nH]3)oc2c1 [Compound B19] ?
Response: 3.42

Request: Then COC(=O)c1ccc2nc(-c3ccc(-c4nc5cc(C)ccc5o4)[nH]3)oc2c1 [Compound B14] ?
Response: 3.02

Request: Then Cc1ccc2nc(-c3ccc(-c4nc5ccccc5o4)[nH]3)oc2c1 [Compound B7] ?
Response: 2.53

Request: Then Cc1ccc2oc(-c3ccc(-c4nc5ccc(C)cc5o4)[nH]3)nc2c1 [Compound B11] ?
Response: 2.44

Request: Then COc1ccc2oc(-c3ccc(-c4nc5cc(Cl)ccc5o4)[nH]3)nc2c1 [Compound B17] ?
Response: 3.03

Request: Then COC(=O)c1ccc2nc(-c3ccc(-c4nc5cc(Cl)ccc5o4)[nH]3)oc2c1 [Compound B20] ?
Response: 3.07
